Test system: HT-29
Assay: Cytotoxic effect on human colon carcinoma HT-29 cell line
Format: functional
Conditions: read-out: ID50 (the source's name)
pIC50: −log10 of the molar value.
So I've got a bunch of compounds here, and I need their pIC50 values.

Field pIC50 (entry `N#CCCN(CCC#N)CCCN(CCCN(CCC#N)CCC#N)CCCN(CCCN(CCCN(CCC#N)CCC#N)CCCN(CCC#N)CCC#N)CCN1C(=O)c2cccc3cccc(c23)C1=O` ) reads < 4.00

The measured pIC50 associated with `N#CCCN(CCC#N)CCCN(CCCN(CCC#N)CCC#N)CCCN(CCCN(CCCN(CCC#N)CCC#N)CCCN(CCC#N)CCC#N)CCN1C(=O)c2cccc3cc([N+](=O)[O-])cc(c23)C1=O` reads < 4.00

For `N#CCCN(CCC#N)CCCN(CCCN(CCC#N)CCC#N)CCCN(CCCN(CCCN(CCC#N)CCC#N)CCCN(CCC#N)CCC#N)CCN1C(=O)c2cccc3cc(N)cc(c23)C1=O` the compound record lists pIC50 as < 4.00

Sample `N#CCCN(CCC#N)CCCN(CCCN(CCC#N)CCC#N)CCCN(CCN)CCCN(CCCN(CCC#N)CCC#N)CCCN(CCC#N)CCC#N` ; pIC50 observed: < 4.00
